- ASSAY TARGET: serotonin receptor (5HT3) (Mus musculus, UniProt P23979)
- Construct: Full-length cDNAs for mosquito (Anopheles gambiae) odorant receptor; expressed in transfected cells
- Sequence (P23979 24-489): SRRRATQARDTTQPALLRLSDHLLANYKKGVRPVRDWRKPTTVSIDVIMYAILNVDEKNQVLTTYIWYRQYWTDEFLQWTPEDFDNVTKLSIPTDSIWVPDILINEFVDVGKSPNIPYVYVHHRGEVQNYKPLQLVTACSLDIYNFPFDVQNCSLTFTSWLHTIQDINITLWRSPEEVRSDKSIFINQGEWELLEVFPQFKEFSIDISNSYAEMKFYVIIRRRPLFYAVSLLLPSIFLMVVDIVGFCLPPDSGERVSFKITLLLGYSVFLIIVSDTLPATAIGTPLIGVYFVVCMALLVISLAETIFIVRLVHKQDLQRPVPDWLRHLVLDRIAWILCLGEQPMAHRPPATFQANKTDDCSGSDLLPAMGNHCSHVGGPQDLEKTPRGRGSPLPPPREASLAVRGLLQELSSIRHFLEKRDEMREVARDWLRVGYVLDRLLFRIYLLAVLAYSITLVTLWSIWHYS
- RUN DESCRIPTION: Ca2+-imaging of stable Flip-In T-Rex cell line 5HT3
- Format: cell-based
- EXPERIMENTAL SETUP: compound applied at 4 μM; read-out: Percent Inhibition 5HT3
inhibition at 4 µM for assorted molecules

MOLECULE: CC(=O)OCC(=O)NCC1Cc2cc(Oc3ccccc3)ccc2O1 (stereo not drawn)
MEASURED VALUE: 26 to 50%

Query :: So what does the record say about inhibition at 4 µM for Cc1ccccc1C(=O)N[C@@H]1CCCCC1NC(=O)C1CCCN(S(=O)(=O)c2cc(Cl)ccc2Cl)C1 (stereo partly drawn) ?
Result :: < 25%

Query :: Same again, this time with COc1ccccc1N1CCN(C(=O)c2cc3n(n2)CCN(Cc2c(F)cccc2Cl)C3=O)CC1
Result :: 51 to 74%

###

- ASSAY TARGET: UniProt Q920P2
- RUN DESCRIPTION: Ca2+-imaging, control receptor mOREG
- Type: cell-based
- EXPERIMENTAL SETUP: compound applied at 4 μM; read-out: Percent Inhibition mOREG
ENDPOINT NAME: inhibition at 4 µM

MOLECULE: O=C(CCC1CCN(C(=O)c2cccc(-n3cccn3)c2)CC1)Nc1ccccc1 [RU-0032465]
MEASURED VALUE: 26 to 50%

MOLECULE: CCOC(=O)c1c(NC(C)=O)c(-c2ccc(OC)cc2)cn1Cc1ccccc1 [RU-0077733]
MEASURED VALUE: < 25%

MOLECULE: COCCCN(CC(=O)N1CCc2sccc2C1COc1cccc(OC)c1)C(=O)c1ccccc1OC (centres unmarked) [RU-0036294]
MEASURED VALUE: 26 to 50%

Query :: So what does the record say about inhibition at 4 µM for O=C(c1ccco1)N(Cc1ccco1)Cc1nccn1Cc1ccccc1F [RU-0047694] ?
Result :: < 25%

Query :: Same again, this time with N#Cc1ccccc1C(=O)N1CCOC(COCc2c(Cl)cccc2Cl)C1 (centres unmarked) [RU-0050405]
Result :: < 25%

###

inhibition at 4 µM for assorted compounds
- ASSAY TARGET: mOREG (Mus musculus, UniProt Q920P2)
- Sequence (Q920P2 1-313): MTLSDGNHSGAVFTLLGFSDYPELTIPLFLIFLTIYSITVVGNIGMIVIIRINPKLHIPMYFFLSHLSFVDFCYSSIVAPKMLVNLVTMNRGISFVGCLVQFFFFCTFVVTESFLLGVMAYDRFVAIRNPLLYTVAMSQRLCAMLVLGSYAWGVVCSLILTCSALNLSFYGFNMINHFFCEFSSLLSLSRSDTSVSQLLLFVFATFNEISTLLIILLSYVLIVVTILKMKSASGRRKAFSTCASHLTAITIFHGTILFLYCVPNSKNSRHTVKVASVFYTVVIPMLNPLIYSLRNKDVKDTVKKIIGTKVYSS
- RUN DESCRIPTION: Ca2+-imaging, control receptor mOREG
- Format: cell-based
- EXPERIMENTAL SETUP: compound applied at 4 μM; read-out: Percent Inhibition mOREG

Solved entries:
COMPOUND: C=CCN(Cc1nccn1Cc1ccc(Cl)c(Cl)c1)C(=O)c1ccccc1F [RU-0047955]
inhibition at 4 µM: < 25%

COMPOUND: CCc1cc(N2CCCC2)nc(SCc2ccc(C(=O)N3CCOCC3)o2)n1 [RU-0047568]
inhibition at 4 µM: 26 to 50%

COMPOUND: O=C(C1CCC1)N(Cc1ccco1)Cc1nccn1Cc1ccccc1Cl [RU-0048066]
inhibition at 4 µM: < 25%

COMPOUND: CN(Cc1ccccc1)C(=O)CCC1CCN(C(=O)CCOc2ccccc2)CC1 [RU-0028727]
inhibition at 4 µM: 51 to 74%

COMPOUND: COc1cccc(NC(=O)CCC2CCN(C(=O)CSc3ccccc3)CC2)c1 [RU-0032474]
inhibition at 4 µM: < 25%

Query :: So what does the record say about inhibition at 4 µM for Cc1cc(C)c(Cn2ccnc2CN(C(=O)c2ccccc2F)C(C)C)c(C)c1 [RU-0048001] ?
Result :: 26 to 50%

Query :: Same again, this time with O=C1CN(S(=O)(=O)c2c(F)cc(F)cc2F)CC2c3cccc(F)c3CCN12 (stereo not drawn) [RU-0076832]
Result :: 26 to 50%

Query :: Same again, this time with CCc1c(C(=O)NCc2cccnc2)cnn1-c1ccccc1 [RU-0048504]
Result :: < 25%

Query :: Same again, this time with C=CCNC(=O)C(NC(=O)c1cccc(C)c1)C1CCN(C(=O)c2cccc(Br)c2)CC1 (stereo not drawn) [RU-0039123]
Result :: 26 to 50%

Query :: Same again, this time with COc1ccccc1CC(=O)N1CCOC(COc2ccc(C)cc2)C1 (stereo not drawn) [RU-0050390]
Result :: < 25%

Query :: Same again, this time with COCCN(Cc1nccn1Cc1c(F)cccc1Cl)C(=O)CCc1ccccc1 [RU-0058550]
Result :: 26 to 50%

Query :: Same again, this time with COCCCN(CC(=O)N1CCc2sccc2C1COc1cccc(OC)c1)C(=O)Cc1ccccc1 (stereo not drawn) [RU-0036264]
Result :: < 25%

Query :: Same again, this time with CCN(CC)C(=O)Oc1ccc2c(ccn2Cc2cccc(C)c2)c1NC(=O)[C@H](C)OC(C)=O [RU-0075468]
Result :: > 75%

Query :: Same again, this time with COc1nc(OCC#N)nc(N2CCCCC2)n1 [RU-0006256]
Result :: < 25%

Query :: Same again, this time with CCOCCCN(CC(=O)N(Cc1ccc2c(c1)OCO2)Cc1sccc1C)C(=O)NC(C)(C)C [RU-0052340]
Result :: 26 to 50%
